Here, each record is paired with measured IC50 (log10 M) data.
tested on: EOL-1; test: IC50 (cell viability) (log10 M); details: 4 days
I only need the number, thanks.

Worked examples, 2 compounds total:
COMPOUND: CNC(=O)c1ccccc1Sc1ccc2c(/C=C/c3ccccn3)n[nH]c2c1
VALUE MEASURED: -8.07
//
COMPOUND: COc1cc(F)c(F)c(Nc2ccc(I)cc2F)c1NS(=O)(=O)C1(C[C@H](O)CO)CC1
VALUE MEASURED: -6.65

Looking for the measured IC50 (log10 M) of "CO[C@@H]1[C@H](N(C)C(=O)c2ccccc2)C[C@H]2O[C@]1(C)n1c3ccccc3c3c4c(c5c6ccccc6n2c5c31)C(=O)NC4" , can you help? -8.49

Looking for the measured IC50 (log10 M) of "Cc1cnc(Nc2ccc(OCCN3CCCC3)cc2)nc1Nc1cccc(S(=O)(=O)NC(C)(C)C)c1" , can you help? -7.2

Looking for the measured IC50 (log10 M) of CC1=C(/C=C/C(C)=C/C=C/C(C)=C/C(=O)Nc2ccc(O)cc2)C(C)(C)CCC1 [Fenretinide] , can you help? -5.86

Looking for the measured IC50 (log10 M) of "COC1=CC(c2cc3ccccc3[nH]2)=N/C1=C\c1[nH]c(C)cc1C" , can you help? -7.65
